These entries and their values trace back to paper PMC10066265.

biological target: T1, His6-PP1α_(7-330) (UniProt P62136 7-330); test: SPR; His6-PP1 captured on a Ni-NTA sensorchip, I3_(27-68) injected; pH = 7.5 (Table 1); two state fit; pH 7.5; details: both partners purified
T1 construct: Protein Phosphatase 1 alpha (PP1α), residues 7-330; Captured by its His6 tag on the Ni-NTA chip for SPR; Two Mn2+ at the active site when made in E. coli with MnCl2; also called PP1_(7-330); Protein Phosphatase 1; source: bacterial expression (E. coli) as previously described, purified (Ni-NTA, SEC)
T1 sequence (P62136 7-330): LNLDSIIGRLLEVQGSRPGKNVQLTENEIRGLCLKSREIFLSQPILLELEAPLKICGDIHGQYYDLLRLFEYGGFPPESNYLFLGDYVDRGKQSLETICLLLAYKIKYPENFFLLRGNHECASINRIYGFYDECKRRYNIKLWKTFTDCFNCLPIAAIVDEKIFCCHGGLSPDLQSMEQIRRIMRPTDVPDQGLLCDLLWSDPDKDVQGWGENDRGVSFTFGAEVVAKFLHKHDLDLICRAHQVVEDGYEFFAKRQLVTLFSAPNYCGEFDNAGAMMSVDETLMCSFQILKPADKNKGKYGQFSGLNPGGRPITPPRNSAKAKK
property_measured: Kd (nM)
Quick reminder: number only, in nM, skip the unit.

Form: binder = SLTIKLRKRKPEKKVEWTSDTVDNEHMGRRSSKCCCIYEKPR (domain or fragment, human, UniProt O60927 27-68, looked up, PPP1R11), human, residues 27-68; also called WT I3_(27-68); source: E. coli BL21 (DE3), purified (Ni-NTA, TEV, heat 95 °C, SEC); not shown: His6, N-terminal, cleaved; MBP, N-terminal, cleaved) [I3_(27-68) (I3 PP1 interaction domain)] ; Kd = 9
